target: Sigma-1 receptor (Cavia porcellus, UniProt Q60492); construct: guinea pig brains were homogenized; from tissue; host or cells: guinea pig brain membranes; assay: Sigma-1 receptor binding assay, [3H](+)-pentazocine displacement in brain membranes; conditions: 2.5 h, compound at 10^−7 M; [3H](+)-pentazocine 0.5 nM; guinea pig brain membranes; non-specific binding defined by 1 μM haloperidol; read-out: Percent Replacement Sigma-1 receptor [10^−7 M]
Sequence (Q60492 whole entry): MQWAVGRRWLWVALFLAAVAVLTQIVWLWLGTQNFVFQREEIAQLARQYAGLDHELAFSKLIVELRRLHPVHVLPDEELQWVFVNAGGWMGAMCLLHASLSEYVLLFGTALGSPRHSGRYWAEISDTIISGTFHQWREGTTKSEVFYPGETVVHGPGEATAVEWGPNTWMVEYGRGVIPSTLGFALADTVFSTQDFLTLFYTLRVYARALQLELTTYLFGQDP
Where a name gives a salt, the structure may show the parent alone.
ATTRIBUTE_MEASURED: inhibition at 0.1 µM (%)

Example cases with answers are listed next.
> print(dat)
                                    molecule  unit.text  observed.result
 1  CC(=O)O[C@@H]1CN(Cc2ccccc2)C[C@H]1N1CCN(S(=O)(=O)c2ccccc2F)CC1 [Example 75, acetate dihydrochloride]          %             95.5
 2  Cc1ccc(F)cc1S(=O)(=O)N1CCN([C@@H]2CN(Cc3ccccc3)C[C@H]2O)CC1          %             81.4
 3  O=S(=O)(c1ccccc1Br)N1CCN([C@@H]2CN(Cc3ccccc3)C[C@H]2O)CC1 [Example 67, dihydrochloride]          %             86.7
 4  COc1ccc(N[C@@H]2CN(Cc3ccccc3)C[C@H]2O)cc1          %             65.4
 5  O[C@@H]1CN(Cc2ccccc2)C[C@H]1N1CCN(c2ccc(F)cc2)CC1          %             69.7
 6  Cc1ccc(S(=O)(=O)N2CCN([C@@H]3CN(Cc4ccccc4)C[C@H]3O)CC2)cc1 [Example 57, dihydrochloride]          %             16.8
 7     CCCCCCCCN[C@@H]1CN(Cc2ccccc2)C[C@H]1O          %             89.9
 8  O[C@@H]1CN(Cc2ccccc2)C[C@H]1NCCCN1CCc2ccccc2C1          %             38.6
 9  CC(=O)O[C@@H]1CN(Cc2ccccc2)C[C@H]1N1CCN(S(=O)(=O)c2ccc(C)cc2)CC1 [Example 56, acetate dihydrochloride]          %               38
10  O[C@@H]1CN(Cc2ccccc2)C[C@H]1N1CCc2ccccc2C1          %             84.9

a: CC(=O)O[C@@H]1CN(Cc2ccccc2)C[C@H]1N1CCN(C(=O)OC(C)(C)C)CC1
b: O=S(=O)(c1ccccc1F)N1CCN([C@H]2CN(Cc3ccccc3)C[C@@H]2O)CC1 [Example 77, dihydrochloride]
Enquiry: Compare a and b and name the one whose reported inhibition at 0.1 µM is smaller. The response must carry the label of the picked entry.
Return: b

A: O[C@@H]1CN(Cc2ccccc2)C[C@H]1N1CCN(Cc2ccc(Cl)c(Cl)c2)CC1
B: O=S(=O)(c1cccc2ccccc12)N1CCN([C@@H]2CN(Cc3ccccc3)C[C@H]2O)CC1 [Example 61, dihydrochloride]
C: C[C@@H](c1ccccc1)N1C[C@@H](O)[C@H](N2CCc3ccccc3C2)C1
Enquiry: Sequence the entries by inhibition at 0.1 µM, beginning with the highest number. State the ranking by listing the labels in the requested order.
Return: A, C, B
(A: 88.4%, C: 49.9%, B: 30.1%)
